Cited source for all entries: PubChem BioAssay (NCI)

tested on: PC-3 prostate; test: NCI tumour cell line growth inhibition, 48 h
Consider the following compounds; for each one, report its TGI.

These solved cases illustrate the format of a correct answer.
INSERT INTO measurements (compound, observed_value) VALUES
  ('COc1ccc(-c2c3c(N)c4c(nc3nc3c2c(C)nn3-c2ccccc2)CCCC4)cc1', '10.9 µM'),
  ('O=C(O)Cc1cccc2c(=O)c3cccc([N+](=O)[O-])c3[nH]c12', '> 100 µM'),
  ('CNC(=O)CCCNC(=O)CCCC(=O)OC', '> 100 µM');

Parameters: items (list). Returns: TGI for each item.
1. COc1ccc(C2CC(c3ccc(N(C)C)cc3)=NN2c2ccc(S(N)(=O)=O)cc2)cc1 (stereo not drawn)
2. CCCCN(C)C(=O)C1=C(C)NC(C)=C(C(=O)N(C)CCCC)C1

Out:
> 100 µM
> 100 µM

Parameters: items (list). Returns: TGI for each item.
1. COc1ccc(-n2c(C)nc3ccc(NC4OC(CO)C(O)C(O)C4O)cc3c2=O)cc1 (stereo not drawn)
2. COc1ccc(COc2cc3oc(=O)c4cc(C(C)O)ccc4c3cc2OC)cc1 (stereo not drawn)
3. O=C1/C(=C/c2cccs2)NC(=S)N1CN1CCCCC1
4. Nc1[nH]c(=O)[nH]c(=O)c1Cc1cccc(Cl)c1
5. c1n[nH]cc1C12C3C4C5C3C1C5C42 (stereo not drawn)

Out:
> 100 µM
> 100 µM
> 100 µM
> 100 µM
> 100 µM

Parameters: items (list). Returns: TGI for each item.
1. CC(=O)NCCCCN(CCCNC(C)=O)C(=O)OCc1ccccc1
2. N#Cc1cccc(Nc2ncc(-c3ccccc3)o2)c1
3. COc1cc2c(cc1NC(=O)C(Cl)Cl)-c1ccc(NC(=O)C(Cl)Cl)cc1C2
4. Nc1nc2ccccc2c2c1S(=O)(=O)c1ccc(Cl)cc1C2=O
5. O/N=C1/CCCc2nonc21
6. Cc1ccc(/N=N/C(=NNC(=O)c2ccc(C)cc2)c2ccc(N(C)C)cc2)cc1

Out:
1: > 100 µM; 2: > 25 µM; 3: 1.76 µM; 4: > 50 µM; 5: > 100 µM; 6: > 100 µM

Parameters: items (list). Returns: TGI for each item.
1. Cc1nc(N(C(C)C)C(C)C)c(C(C)C)o1
2. c1ccc(C2CCCCC2)c(OCCCCCN2CCNCC2)c1

Out:
> 100 µM
18.4 µM

====

Consider the following compounds; for each one, report its TGI.
system: SF-268 CNS; assay: NCI tumour cell line growth inhibition, 48 h

These solved cases illustrate the format of a correct answer.
INSERT INTO assay_data (compound, experimental_system, assay_metric, observed_value) VALUES
  ('O=S(=O)(NCCCNc1nccc(-c2c(-c3ccc(F)cc3)nc3sccn23)n1)c1ccc(F)cc1', 'SF-268 CNS', 'TGI', '> 100 µM'),
  ('CSc1ccc2c(cc1=O)C(NC(=O)c1ccc(C#N)cc1)CCc1cc(O)c(O)c(O)c1-2 (stereo not given)', 'SF-268 CNS', 'TGI', '> 100 µM'),
  ('c1ccc2cc3c(cc2c1)OP1(Oc2cccc4cccnc24)(O3)Oc2cc3ccccc3cc2O1', 'SF-268 CNS', 'TGI', '> 100 µM'),
  ('C/C(N)=N/OCc1nc(C)no1', 'SF-268 CNS', 'TGI', '> 100 µM');

# TGI (compound: "C[C@H](NC(=O)CNC(=O)CCCCCC(=O)NCC(=O)N[C@@H](C)C(=O)OCc1ccccc1)C(=O)OCc1ccccc1" ) is > 100 µM

====

system: RPMI-8226 leukemia; test: NCI tumour cell line growth inhibition, 48 h; in the data active = GI50 below about 0.43 µM; inactive = the rest
Parameter call: string, one of TRUE for active, FALSE for inactive

Below are worked cases with known answers.
INSERT INTO results (molecule, experimental_system, category_label) VALUES
  ('Cn1c(C(=O)c2cccc3ccccc23)nc2ccccc21', 'RPMI-8226 leukemia', 'FALSE'),
  ('COc1ccc2c(c1)C(=O)c1c-2c(=O)n(CCCN(C)C)c2cc(OC)c(OC)cc12', 'RPMI-8226 leukemia', 'FALSE'),
  ('COC1=C(OC)[C@]2(OC)c3c(O)c(OC)c4c(c3O[C@@]23O[C@@H](c2ccccc2)CC=C3C1=O)[C@@H](OC)C[C@H](c1ccccc1)O4', 'RPMI-8226 leukemia', 'TRUE'),
  ('Nc1nc2ccccc2c2c1S(=O)(=O)c1ccc(Cl)cc1C2=O', 'RPMI-8226 leukemia', 'FALSE'),
  ('COc1ccc(/C=N\Nc2nc(SCC(C)C)nc(-c3ccc(OC)cc3)c2C#N)cc1', 'RPMI-8226 leukemia', 'FALSE');

In: Hi, do you know how "COc1ccc(S(=O)(=O)N2CCNCC2)cc1OC" came out in this test?
Out: FALSE

In: Hi, do you know how "O=C(O)CCCc1ccccc1" came out in this test?
Out: FALSE

====

system: DMS 114 small cell lung; assay: NCI tumour cell line growth inhibition, 48 h
Consider the following compounds; for each one, report its TGI.

These solved cases illustrate the format of a correct answer.
INSERT INTO measurements (compound, observed_value) VALUES
  ('O=C(CC(=O)c1ccccc1)C(=O)Nc1ccc(Cl)cc1', '> 57 µM'),
  ('CS(=O)(=O)C1(Br)S(=O)(=O)OCCOS1(=O)=O', '> 100 µM'),
  ('CCOC(=O)C(CCCNC(=O)OC(C)(C)C)N(Cc1ccc(OC)cc1OC)C(=O)CC(=O)CP(=O)(OCC)OCC (centres undefined)', '> 100 µM'),
  ('Cc1nnc(N/N=C(/C(=O)C(C#N)c2ccc(Cl)cc2)C(C#N)c2ccc(Cl)cc2)n1N (centres undefined)', '31.4 µM'),
  ('O=C(O)C12CC3CC(CC(F)(C3)C1)C2', '> 100 µM'),
  ('CC(C)N(C(=O)C12C3C4C1C1C2C3C41C(=O)N(C(C)C)C(C)C)C(C)C (centres undefined)', '> 50 µM'),
  ('O=C(Cc1ccccc1)C(c1ccccc1)S(=O)(=O)c1ccccc1 (centres undefined)', '> 100 µM'),
  ('CC1CCC2(C)C(CC=C(C=O)C2(O)C=O)C12CO2 (centres undefined)', '4.84 µM');

Entry "c1ccc(CN2COc3c(ccc4c5c(ccc34)CN(Cc3ccccc3)CO5)C2)cc1" ; assay system DMS 114 small cell lung; TGI recorded at > 100 µM

====

Consider the following compounds; for each one, report its TGI.
tested on: SK-MEL-5 melanoma; assay: NCI tumour cell line growth inhibition, 48 h
One number for each entry, in µM.

These solved cases illustrate the format of a correct answer.
INSERT INTO results (smiles_input, assay_metric, u, observed_value) VALUES
  ('O=c1ccc2ccccc2c2ccccc12', 'TGI', 'µM', 12.7),
  ('CCN(Cc1ccc(F)cc1)c1ccc(CO)c(C(F)(F)F)c1', 'TGI', 'µM', 26.8);

Okay, next one:
# TGI (compound: "Nc1nc(-c2ccc(Cl)cc2)nc2c1sc(=S)n2-c1ccccc1" ) is 10.1

====

test system: MALME-3M melanoma; test: NCI tumour cell line growth inhibition, 48 h
Assay metric: TGI (µM)
One number for each entry, in µM.

INSERT INTO measurements (compound, assay_metric, u, observed_value) VALUES
  ('Fc1ccc2nc(-c3nc(-c4ccccc4)n4ccccc34)[nH]c2c1', 'TGI', 'µM', 4.33);

Parameters: items (list). Returns: TGI for each item.
1. Cc1ccc(-n2c(-c3cc4c([nH]c5ccccc54)c(-c4cccc(O)c4)n3)n[nH]c2=S)cc1
2. COc1ccc(COc2cc3oc(=O)c4cc(C(C)O)ccc4c3cc2OC)cc1 (stereo unspecified)

Out:
[17.6, 40.2]

====

system: HCT-15 colon; experiment: NCI tumour cell line growth inhibition, 48 h; in the data active means GI50 below about 0.43 µM; inactive means the rest
Parameter call: string, one of true = active, false = inactive

INSERT INTO results (compound, category_label) VALUES
  ('O=S(=O)(O)c1ccc2cc3nn(-c4ccc(/C=C/c5ccc(-n6nc7cc8ccc(S(=O)(=O)O)cc8cc7n6)cc5S(=O)(=O)O)c(S(=O)(=O)O)c4)nc3cc2c1', 'false'),
  ('[Cl][Cu][Cl]', 'false'),
  ('COC1=C(OC)[C@]2(OC)c3c(O)c(OC)c4c(c3O[C@@]23O[C@@H](c2ccccc2)CC=C3C1=O)[C@@H](OC)C[C@H](c1ccccc1)O4', 'true');

In: Hi, do you know how "O=c1[nH]c2ccccc2n1C1CCN(CCCC(c2ccc(F)cc2)c2ccc(F)cc2)CC1" came out in this test?
Out: false

In: Hi, do you know how "O=S(=O)(NCCCNc1cc(-c2cn(-c3ccccc3)nc2-c2cccc(O)c2)ccn1)c1ccc(F)cc1" came out in this test?
Out: false

In: Hi, do you know how "O=C1c2ccccc2C(=O)c2c1cc1c(c2[N+](=O)[O-])OCO1" came out in this test?
Out: false

In: Hi, do you know how "Cc1ccc(Cl)cc1-n1c(C)nc2c(cnn2-c2ccnc3c(C(F)(F)F)cccc23)c1=O" came out in this test?
Out: false

In: Hi, do you know how "COc1ccc(/C=N\Nc2nc(SCC(C)C)nc(-c3ccc(OC)cc3)c2C#N)cc1" came out in this test?
Out: false

In: Hi, do you know how "COC(=O)c1cc([N+](=O)[O-])cc([N+](=O)[O-])c1Cl" came out in this test?
Out: false

In: Hi, do you know how "COc1cc(-c2ncn(/C=C\c3nnco3)n2)cc(C(F)(F)F)c1" came out in this test?
Out: true
